Quick reference for pEC50 among some compounds
- Target: 229E Mpro (Human coronavirus 229E (HCoV-229E))
- Method Description: 229E Mpro activity
- Format: biochemical
- Setup Conditions: read-out: 229E Mpro EC50
pEC50: −log10 of the molar value.

## Task State the measured pEC50 (229E Mpro (Human coronavirus 229E (HCoV-229E))) of COc1cccc2[nH]c(C(=O)N[C@@H](CC(C)C)C(=O)NC(C#N)Cc3cc(=O)[nH]c4ccccc34)cc12 (mixture of isomers)
## Result < 4.52

## Task State the measured pEC50 (229E Mpro (Human coronavirus 229E (HCoV-229E))) of N#C[C@H](C[C@@H]1CCCNC1=O)NC(=O)C1CC2(CCCCC2)CN1C(=O)c1cc2ccc(Cl)cc2[nH]1 (single isomer, unassigned) [733 (Isomer 1)]
## Result > 5.70

## Task State the measured pEC50 (229E Mpro (Human coronavirus 229E (HCoV-229E))) of COc1cccc2[nH]c(C(=O)N[C@@H](CC(C)C)C(=O)N[C@@H](C[C@@H]3CCNC3=O)C(C#N)NC(C)(C)C)cc12 (single isomer, unassigned) [323 (Isomer 2)]
## Result > 5.70

## Task State the measured pEC50 (229E Mpro (Human coronavirus 229E (HCoV-229E))) of CC(C)C[C@H](NC(=O)c1cc2c(OC(F)F)cccc2[nH]1)C(=O)N[C@H](C#N)C[C@@H]1CCNC1=O
## Result > 5.70

## Task State the measured pEC50 (229E Mpro (Human coronavirus 229E (HCoV-229E))) of N#C[C@H](C[C@@H]1CCCNC1=O)NC(=O)C1CC2(CCC2)CN1C(=O)c1cc2c(Cl)cccc2[nH]1 (single isomer, unassigned) [803 (Isomer 3)]
## Result > 5.70

## Task State the measured pEC50 (229E Mpro (Human coronavirus 229E (HCoV-229E))) of N#C[C@H](C[C@@H]1CCCNC1=O)NC(=O)[C@H](CC1CC1)NC(=O)c1cc2c(F)ccc(Cl)c2[nH]1
## Result > 5.70

## Task State the measured pEC50 (229E Mpro (Human coronavirus 229E (HCoV-229E))) of N#C[C@H](C[C@@H]1CCCNC1=O)NC(=O)[C@H](CC1CC1)NC(=O)c1cc2c(F)ccc(Br)c2[nH]1
## Result > 5.70

## Task State the measured pEC50 (229E Mpro (Human coronavirus 229E (HCoV-229E))) of N#C[C@H](C[C@@H]1CCCNC1=O)NC(=O)[C@H](CC1CC1)NC(=O)c1cc2cc(F)cc(Cl)c2[nH]1
## Result > 5.70

## Task State the measured pEC50 (229E Mpro (Human coronavirus 229E (HCoV-229E))) of COCCOCCOc1cccc2[nH]c(C(=O)NC(CC(C)(C)C)C(=O)NC(C#N)CC3CCCNC3=O)cc12 (single isomer, unassigned) [875 (Isomer 1)]
## Result > 5.70

## Task State the measured pEC50 (229E Mpro (Human coronavirus 229E (HCoV-229E))) of COc1cc(Cl)c2[nH]c(C(=O)N[C@@H](CC(C)(C)C)C(=O)N[C@H](C#N)C[C@@H]3CCNC3=O)cc2c1
## Result > 5.70

## Task State the measured pEC50 (229E Mpro (Human coronavirus 229E (HCoV-229E))) of COc1cccc2[nH]c(C(=O)N3CC(C)(C)C[C@H]3C(=O)N[C@H](C#N)C[C@@H]3CCNC3=O)cc12 (single isomer, unassigned) [395 (Isomer 2)]
## Result > 5.70

## Task State the measured pEC50 (229E Mpro (Human coronavirus 229E (HCoV-229E))) of COc1cccc2[nH]c(C(=O)N[C@@H](Cc3cccnc3)C(=O)N[C@H](C#N)C[C@@H]3CCNC3=O)cc12
## Result < 4.52

###

- Target: 229E Mpro (Human coronavirus 229E (HCoV-229E))
- Method Description: 229E Mpro activity
- Format: biochemical
- Setup Conditions: read-out: 229E Mpro EC50
pEC50: −log10 of the molar value.
Quick reference for pEC50 among some compounds

Below, each entry is followed by its recorded pEC50 result.
{"columns": ["Compound", "Target", "Result"],
 "data": [
  ["N#C[C@H](C[C@@H]1CCNC1=O)NC(=O)C1CC2(CCCCC2)CN1C(=O)c1cc2ccc(Cl)cc2[nH]1 (single isomer, unassigned) [878 (Isomer 1)]", "229E Mpro (Human coronavirus 229E (HCoV-229E))", "> 5.70"],
  ["COc1cccc2[nH]c(C(=O)N3C[C@H](C)C[C@H]3C(=O)N[C@H](C#N)C[C@@H]3CCNC3=O)cc12 [Compound 413]", "229E Mpro (Human coronavirus 229E (HCoV-229E))", "> 5.70"],
  ["COc1ccc(Cl)c2[nH]c(C(=O)N3CC4(CCCCC4)CC3C(=O)NC(C#N)C[C@@H]3CCCNC3=O)cc12 (single isomer, unassigned) [902 (Isomer 1)]", "229E Mpro (Human coronavirus 229E (HCoV-229E))", "> 5.70"],
  ["N#C[C@H](C[C@@H]1CCCNC1=O)NC(=O)[C@H](CC1CC1)NC(=O)c1cc2c(Cl)cncc2[nH]1 [Compound 669]", "229E Mpro (Human coronavirus 229E (HCoV-229E))", "> 5.70"],
  ["Cc1ccn(C(CC2CC2)C(=O)N[C@H](C#N)C[C@@H]2CCNC2=O)c(=O)c1NC(=O)OC(C)(C)C (single isomer, unassigned) [591 (Isomer 2)]", "229E Mpro (Human coronavirus 229E (HCoV-229E))", "< 4.52"]
]}

## Task Give the reported pEC50 for this compound. N#C[C@H](C[C@@H]1CCCNC1=O)NC(=O)[C@H](CC1CC1)NC(=O)c1cc2c(Cl)cc(Cl)cc2[nH]1 [Compound 840]
## Result > 5.70

###

- Target: SARS-CoV2 Mpro (Severe acute respiratory syndrome coronavirus 2 (2019-nCoV) (SARS-CoV-2), UniProt P0DTD1)
Readout Kind: IC50

## Task Give the reported IC50 for this molecule. CC1(C)CCC(C[C@@H](C#N)NC(=O)C2CC3(CCCCC3)CN2C(=O)c2cc3cccc(Cl)c3[nH]2)C(=O)N1 (single isomer, unassigned) [928 (Isomer 3)]
## Result < 2 µM

###

- Target: 229E Mpro (Human coronavirus 229E (HCoV-229E), UniProt P0C6X1)
- Sequence (P0C6X1 2966-3267 limits assumed): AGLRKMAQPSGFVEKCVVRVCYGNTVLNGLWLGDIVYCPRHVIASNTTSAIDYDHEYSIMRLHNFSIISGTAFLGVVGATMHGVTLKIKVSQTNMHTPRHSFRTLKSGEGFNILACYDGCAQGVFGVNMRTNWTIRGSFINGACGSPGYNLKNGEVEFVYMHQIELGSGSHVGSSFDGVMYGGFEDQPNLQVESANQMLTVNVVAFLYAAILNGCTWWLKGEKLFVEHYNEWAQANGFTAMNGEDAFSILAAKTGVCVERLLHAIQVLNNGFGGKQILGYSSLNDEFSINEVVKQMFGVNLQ
- Method Description: 229E Mpro activity
- Type: biochemical
- Setup Conditions: read-out: 229E Mpro EC50
pEC50: −log10 of the molar value.
Quick reference for pEC50 among some compounds

Below, each entry is followed by its recorded pEC50 result.
{"columns": ["Compound", "pEC50"],
 "data": [
  ["Cc1cc(C(=O)N[C@H]2CC[C@@H]3SC[C@@H](C(=O)N[C@H](C#N)C[C@@H]4CCNC4=O)N3C2=O)no1", "< 4.52"],
  ["N#C[C@H](C[C@@H]1CCNC1=O)NC(=O)C1CC2(CCC2)CN1C(=O)c1cc2ccc(Cl)c(Cl)c2[nH]1 (single isomer, unassigned) [814 (Isomer 1)]", "< 4.52"],
  ["COc1cccc2[nH]c(C(=O)N[C@H](C(=O)N[C@H](C#N)C[C@@H]3CCNC3=O)C3Cc4ccccc4C3)cc12", "5.00 to 5.70"],
  ["N#C[C@H](C[C@@H]1CCCNC1=O)NC(=O)C1CC2(CCCCC2)CN1C(=O)c1cc2ccc(Cl)cc2[nH]1 (single isomer, unassigned) [733 (Isomer 2)]", "5.00 to 5.70"],
  ["N#C[C@H](C[C@@H]1CCNC1=O)NC(=O)[C@@H]1C[C@@H](c2ccccc2)CN1C(=O)/C=C/c1ccc(Cl)cc1F", "5.00 to 5.70"]
]}

Lab note: next compound to report on.
## Task Give the reported pEC50 for this compound. N#C[C@H](C[C@@H]1CCCNC1=O)NC(=O)[C@H](CC1CC1)NC(=O)c1ncc(Cl)[nH]1
## Result > 5.70

###

- Target: UniProt:P0C6X1
- Method Description: 229E Mpro activity
- Assay type: biochemical
- Setup Conditions: read-out: 229E Mpro EC50
Readout Kind: EC50

Below, each entry is followed by its recorded EC50 result.
{"columns": ["Compound", "EC50"],
 "data": [
  ["COc1cccc2[nH]c(C(=O)N3C[C@H](c4ccccc4)C[C@H]3C(=O)N[C@@H](C[C@@H]3CCNC3=O)C(O)C#N)cc12 (single isomer, unassigned) [345 (Isomer 2)]", "< 2000 nM"],
  ["COc1cccc2[nH]c(C(=O)N[C@H](C(=O)N[C@H](C#N)C[C@@H]3CCNC3=O)C3CC4CC4C3)cc12 (stereo partly drawn)", "< 2000 nM"]
]}

Lab note: next compound to report on.
## Task Give the reported EC50 for this compound. CN(C(=O)c1cc2cccc(Cl)c2[nH]1)[C@@H](CC1CC1)C(=O)N[C@H](C#N)C[C@@H]1CCCNC1=O
## Result 2000 to 10000 nM
